- System: immortalized Fuchs' endothelial corneal dystrophy cells (iFECD)
- assay-name: Cell viability (CellTiter-Glo Luminescent Cell Viability Assay) in iFECD, secondary screening
- Format: cell-based, human
- experimental-conditions: agent 10 μM, absence of TGF-β, 28 hours, n=2, vs candidate compound non-contacted group
Structures can show the parent of a compound that is named as a salt.
Assignment: determine reported Secondary screening Viable cell number (%) for the given compounds.
Note: unit % is implicit; provide only the numeric part.

Record CN1CC2c3ccccc3Oc3ccc(Cl)cc3C2C1 (centres unmarked) [Asenapine Maleate] / immortalized Fuchs' endothelial corneal dystrophy cells (iFECD), Secondary screening Viable cell number (%) recorded as 101.64

# Cc1[nH]c(=O)c(C#N)cc1-c1ccncc1 with immortalized Fuchs' endothelial corneal dystrophy cells (iFECD): Secondary screening Viable cell number (%) is 99.67

Form: item COc1ccccc1OCCNCC(O)COc1cccc2[nH]c3ccccc3c12 (centres unmarked) ; test system immortalized Fuchs' endothelial corneal dystrophy cells (iFECD); Secondary screening Viable cell number (%): 89.1

So the reported Secondary screening Viable cell number (%) for O=C(O)c1ccc(-n2nc(-c3ccccc3O)nc2-c2ccccc2O)cc1 , on immortalized Fuchs' endothelial corneal dystrophy cells (iFECD), turned out to be 56.04

Recorded Secondary screening Viable cell number (%) for N#Cc1ccc(C(c2ccc(C#N)cc2)n2cncn2)cc1 on immortalized Fuchs' endothelial corneal dystrophy cells (iFECD) was 101.3

Entry CC(=O)Oc1ccccc1C(=O)Nc1ncc([N+](=O)[O-])s1 [Nitazoxanide] , tested on immortalized Fuchs' endothelial corneal dystrophy cells (iFECD), has a reported Secondary screening Viable cell number (%) of 87.81

Observed Secondary screening Viable cell number (%) on immortalized Fuchs' endothelial corneal dystrophy cells (iFECD), entry CC[C@@H]1/C=C(\C)C[C@H](C)C[C@H](OC)[C@H]2O[C@@](O)(C(=O)C(=O)N3CCCC[C@H]3C(=O)O[C@H](/C(C)=C/[C@@H]3CC[C@H](Cl)[C@H](OC)C3)[C@H](C)[C@@H](O)CC1=O)[C@H](C)C[C@@H]2OC , equals 84.64

Record CCCC(=O)Nc1ccc(OCC(O)CNC(C)C)c(C(C)=O)c1.Cl (centres unmarked) [Acebutolol•HCl] has immortalized Fuchs' endothelial corneal dystrophy cells (iFECD) Secondary screening Viable cell number (%) equal to 99.77

Cited source: patent US20200386744A1
